Could you please report measured MIC for the items listed next?
# Tested on: Mycolicibacterium smegmatis
# EXPERIMENTAL DETAILS: Antimycobacterial activity against Mycobacterium smegmatis MC2 155 after 72 hrs by broth microdilution method
# Format: functional
# ASSAY CONTEXT: str. MC2 155, 72 h

Record excerpt, results attached:
STRUCTURE SMILES STRING	OBSERVED MEASUREMENT
CCOC(=O)c1cn(CC)c2c(ccc3c2nnn3Cc2ccccc2)c1=O	> 128 µg/mL
Cn1nnc2c3c(ccc21)c(=O)c(C(=O)O)cn3CC1CC1	64 µg/mL
C=C(C)Cn1cc(C(=O)OCC)c(=O)c2ccc3c(nnn3C)c21	> 128 µg/mL
C=CCn1cc(C(=O)O)c(=O)c2ccc3c(nnn3Cc3ccccc3)c21	> 128 µg/mL
Cn1cc(C(=O)O)c(=O)c2ccc3c(nnn3Cc3ccccc3)c21	32 µg/mL

Could you share which MIC value was measured for Cn1nnc2c3c(ccc21)c(=O)c(C(=O)O)cn3CC1CCC1 ?
64 µg/mL

Data provenance is ChEMBL document CHEMBL1649406.
